This collection of values is drawn from patent US20090069304A1.

- MEASURED_TARGET: MMP-13 (Homo sapiens, UniProt P45452)
- Construct: purchased Calbiochem (EMD/MERCK Biosciences)
- ASSAY_PROTOCOL: Enzyme inhibiting activity of MMPs (fluorogenic peptide substrate), MMP-13
- Type: biochemical
- TEST_SETTINGS: human MMP-13, proenzyme activated with APMA; substrate MOCAc-Pro-Leu-Gly-Leu-A2Pr(DNP)-Ala-Arg-NH2
- Experimental: Various human MMPs (MMP-2, MMP-9 and MMP-13) were purchased from Calbiochem (EMD/MERCK Biosciences). […] The enzyme activity of MMPs was measured according to the method described in C. […] (A) Substrate (synthetic substrate), enzyme (MMPs), inhibitor (B) Substrate (synthetic substrate), inhibitor (C) Substrate (synthetic substrate), enzyme (MMPs) (D) Substrate (synthetic substrate) In each assay, the fluorescent intensity was measured, and inhibition (%) was calculated by the following equation. […]
VALUE_TYPE: IC50 (µM)

[
  {
    "MOLECULE": "CON=Cc1ccc2cc(C#Cc3ccc(N4CCN(S(=O)(=O)N[C@H](C)C(=O)O)CC4)cc3)ccc2c1 [Compound I-66]",
    "IC50, µM": 0.0396
  }
]

1: CCOc1ccc2cc(C#Cc3ccc(N4CCN(S(=O)(=O)N[C@H](C)C(=O)O)CC4)cc3)ccc2c1 [Compound I-27]
2: COc1ccc2cc(C#Cc3ccc(N4CCN(S(=O)(=O)N[C@H](C)C(=O)O)C(C)C4)cc3)ccc2c1 (stereo partly shown) [Compound I-47]
3: CCC[C@H](NS(=O)(=O)N1CCN(c2ccc(C#Cc3ccc4cc(OCC)ccc4c3)cc2)CC1)C(=O)O [Compound I-28]
stdin: Hello, I need these entries ordered by IC50, highest reading first. Thanks! Arrange the labels as the request states and list them.
stdout: 2, 3, 1

###

IC50 by entry:
- MEASURED_TARGET: MMP-2 (Homo sapiens)
- Construct: purchased Calbiochem (EMD/MERCK Biosciences)
- Sequence (P08253 110-660): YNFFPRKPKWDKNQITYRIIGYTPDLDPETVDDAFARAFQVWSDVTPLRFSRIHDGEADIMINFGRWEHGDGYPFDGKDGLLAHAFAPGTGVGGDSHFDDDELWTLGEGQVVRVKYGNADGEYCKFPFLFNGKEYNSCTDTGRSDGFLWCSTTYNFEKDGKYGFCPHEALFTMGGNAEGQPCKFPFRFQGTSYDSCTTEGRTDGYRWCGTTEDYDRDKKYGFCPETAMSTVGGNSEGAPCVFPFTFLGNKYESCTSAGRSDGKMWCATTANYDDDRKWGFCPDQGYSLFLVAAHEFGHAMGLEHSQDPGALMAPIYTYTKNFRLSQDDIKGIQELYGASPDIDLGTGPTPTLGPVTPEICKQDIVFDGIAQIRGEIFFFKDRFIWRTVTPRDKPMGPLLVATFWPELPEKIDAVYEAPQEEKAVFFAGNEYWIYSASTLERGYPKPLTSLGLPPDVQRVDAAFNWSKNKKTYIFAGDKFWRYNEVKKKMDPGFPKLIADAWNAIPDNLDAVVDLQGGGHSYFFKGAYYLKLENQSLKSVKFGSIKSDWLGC
- ASSAY_PROTOCOL: Enzyme inhibiting activity of MMPs (fluorogenic peptide substrate), MMP-2
- Type: biochemical
- TEST_SETTINGS: human MMP-2; substrate MOCAc-Pro-Leu-Gly-Leu-A2Pr(DNP)-Ala-Arg-NH2

Would you please look over these solved cases?
[
  {
    "COMPOUND": "CCOc1ccc2cc(C#Cc3ccc(N4CCN(S(=O)(=O)N[C@H](C)C(=O)O)CC4)cc3)ccc2c1 [Compound I-27]",
    "IC50": "> 10 µM"
  },
  {
    "COMPOUND": "CCC[C@H](NS(=O)(=O)N1CCN(c2ccc(/C=C/c3ccc4ccccc4c3)cc2)CC1)C(=O)O [Compound I-13]",
    "IC50": "> 10 µM"
  },
  {
    "COMPOUND": "CCC[C@H](NS(=O)(=O)N1CCN(c2ccc(/C=C/c3ccc4cc(OCOC)ccc4c3)cc2)CC1)C(=O)O [Compound I-49]",
    "IC50": "1 to 10 µM"
  }
]

Lab note: next compound to report on.
stdin: Provide only the value of recorded IC50 for CCC[C@H](NS(=O)(=O)N1CCC(c2ccc(/C=C/c3ccc4ccccc4c3)cc2)CC1)C(=O)O [Compound I-25]
stdout: > 10 µM

###

- MEASURED_TARGET: MMP-2 (Homo sapiens, UniProt P08253)
- Construct: purchased Calbiochem (EMD/MERCK Biosciences)
- ASSAY_PROTOCOL: Enzyme inhibiting activity of MMPs (fluorogenic peptide substrate), MMP-2
- Assay type: biochemical
- TEST_SETTINGS: human MMP-2; substrate MOCAc-Pro-Leu-Gly-Leu-A2Pr(DNP)-Ala-Arg-NH2
VALUE_TYPE: IC50

[
  {
    "COMPOUND": "COc1ccc2cc(CNc3ccc(N4CCN(S(=O)(=O)N[C@H](C)C(=O)O)CC4)cc3)ccc2c1",
    "RESULT": "1 to 10 µM"
  }
]

stdin: Provide only the value of recorded IC50 for CCC[C@H](NS(=O)(=O)N1CCC(c2ccc(CCc3ccc4cc(OC)ccc4c3)cc2)CC1)C(=O)O
stdout: 1 to 10 µM

stdin: Provide only the value of recorded IC50 for CCC[C@H](NS(=O)(=O)N1CCN(c2ccc(C#Cc3ccc4cc(OC)ccc4c3)cc2)CC1)C(=O)O
stdout: > 10 µM

stdin: Provide only the value of recorded IC50 for COc1ccc2cc(COc3ccc(N4CCN(S(=O)(=O)N[C@@H](C)C(=O)O)CC4)cc3)ccc2c1
stdout: 1 to 10 µM

###

- MEASURED_TARGET: MMP-13 (Homo sapiens, UniProt P45452)
- Construct: purchased Calbiochem (EMD/MERCK Biosciences)
- ASSAY_PROTOCOL: Enzyme inhibiting activity of MMPs (fluorogenic peptide substrate), MMP-13
- Assay type: biochemical
- TEST_SETTINGS: human MMP-13, proenzyme activated with APMA; substrate MOCAc-Pro-Leu-Gly-Leu-A2Pr(DNP)-Ala-Arg-NH2
VALUE_TYPE: IC50 (µM)

Would you please look over these solved cases?
[
  {
    "COMPOUND": "CCC[C@H](NS(=O)(=O)N1CCN(c2ccc(C#Cc3ccc4cc(OC)ccc4c3)cc2)CC1)C(=O)O",
    "IC50 / µM": 0.121
  },
  {
    "COMPOUND": "COc1ccc2cc(CNc3ccc(N4CCN(S(=O)(=O)N[C@H](C)C(=O)O)CC4)cc3)ccc2c1",
    "IC50 / µM": 0.186
  },
  {
    "COMPOUND": "COc1ccc2cc(C#Cc3ccc(N4CCN(S(=O)(=O)N[C@H](C(=O)O)C(C)C)CC4)cc3)ccc2c1",
    "IC50 / µM": 0.11
  },
  {
    "COMPOUND": "COc1ccc2cc(/C=C/c3ccc(N4CCN(S(=O)(=O)N[C@@H](C)C(=O)O)CC4)cc3)ccc2c1",
    "IC50 / µM": 0.176
  },
  {
    "COMPOUND": "COc1ccc2cc(C#Cc3ccc(C4CCN(S(=O)(=O)N[C@H](C)C(=O)O)CC4)cc3)ccc2c1",
    "IC50 / µM": 0.0549
  },
  {
    "COMPOUND": "CCC[C@H](NS(=O)(=O)N1CCC(c2ccc(CCc3ccc4cc(OC)ccc4c3)cc2)CC1)C(=O)O",
    "IC50 / µM": 0.0945
  },
  {
    "COMPOUND": "COc1ccc2cc(COc3ccc(C4CCN(S(=O)(=O)NC(C)C(=O)O)CC4)cc3)ccc2c1 (centres unmarked)",
    "IC50 / µM": 0.142
  },
  {
    "COMPOUND": "CCC[C@H](NS(=O)(=O)N1CCC(c2ccc(/C=C/c3ccc4ccccc4c3)cc2)CC1)C(=O)O",
    "IC50 / µM": 0.145
  }
]

1: CCC[C@H](NS(=O)(=O)N1CCN(c2ccc(/C=C/c3ccc4ccccc4c3)cc2)CC1)C(=O)O
2: CCC[C@H](NS(=O)(=O)N1CCN(c2ccc(/C=C/c3ccc4cc(OCOC)ccc4c3)cc2)CC1)C(=O)O
3: CCC[C@H](NS(=O)(=O)N1CCC(c2ccc(C=Cc3ccc4cc(OC)ccc4c3)cc2)CC1)C(=O)O
stdin: Hello, I need these entries ordered by IC50, highest reading first. Thanks! Arrange the labels as the request states and list them.
stdout: 3, 2, 1

A: COc1ccc2cc(C#Cc3ccc(N4CCN(S(=O)(=O)N[C@H](C)C(=O)O)C[C@@H]4C)cc3)ccc2c1
B: C[C@@H](NS(=O)(=O)N1CCN(c2ccc(C#Cc3ccc4cc(OCC5CC5)ccc4c3)cc2)CC1)C(=O)O
stdin: I'd appreciate it if you could identify which of A and B has the greater IC50. Indicate which entry you chose by stating its label.
stdout: A
(A: 0.107 µM, B: 0.0685 µM)
